Field: GI50. Provide a value for each of the compounds that follow.
Test system: HOP-62
protocolDescription: NCI tumour cell line growth inhibition, 48 h
Active and inactive are the calls of the source. Cut-off read from the data, not from the text of the source: active = GI50 up to about 1.1 µM and inactive = higher.

IN: Notebook entry, HOP-62 assay: GI50 of COc1cc(/C=C2\C(=O)N(c3cc(Cl)ccc3Cl)C(c3ccccc3)S2(=O)=O)cc(OC)c1OC (centres undefined) = ?
OUT: > 100 µM (inactive)

IN: Notebook entry, HOP-62 assay: GI50 of O=C(N[C@@H](c1ccccc1)[C@@H](O)C(=O)OCc1ccc2c(c1)OCO2)c1ccccc1 = ?
OUT: > 100 µM (inactive)

IN: Notebook entry, HOP-62 assay: GI50 of COC(=O)CC(=O)C[P+](c1ccccc1)(c1ccccc1)c1ccccc1 = ?
OUT: > 218 µM (inactive)

IN: Notebook entry, HOP-62 assay: GI50 of O=C(NNc1ccc([N+](=O)[O-])cc1[N+](=O)[O-])/C(O)=C\C(=O)c1ccccc1 = ?
OUT: 16.3 µM (inactive)

IN: Notebook entry, HOP-62 assay: GI50 of COc1ccc(-c2nc(SCC(=O)N/N=C/c3ccc(O)c(OC)c3)[nH]c2-c2ccc(OC)cc2)cc1 = ?
OUT: 24.6 µM (inactive)

IN: Notebook entry, HOP-62 assay: GI50 of Cc1cc(S(=O)(=O)NC2=NNC(C)CN2)c(S)cc1Cl (centres undefined) = ?
OUT: 48.8 µM (inactive)

IN: Notebook entry, HOP-62 assay: GI50 of O=C1CNNC(Cn2nc(-c3ccccc3)c3ccccc3c2=O)=N1 = ?
OUT: > 100 µM (inactive)

IN: Notebook entry, HOP-62 assay: GI50 of C#C[C@]1(O)CC[C@H]2[C@@H]3CCC4=C/C(=N/NC(=O)c5cccc6cc7ccccc7nc56)CC[C@@H]4[C@H]3CC[C@@]21CC = ?
OUT: 67.9 µM (inactive)

IN: Notebook entry, HOP-62 assay: GI50 of COc1ccccc1NC(=O)c1nc2ccc([N+](=O)[O-])cc2nc1C = ?
OUT: 97.1 µM (inactive)

====

Test system: EKVX
protocolDescription: NCI tumour cell line growth inhibition, 48 h
Calls of active or inactive are those of the source. Cut-off read from the data, not from the text of the source: active = GI50 up to about 1.1 µM and inactive = higher.
propertyLabel: GI50

IN: // lookup GI50 for Cc1cccc2c(=O)c([Se]c3coc4c(C)cccc4c3=O)coc12
OUT: 17.3 µM (inactive)

IN: // lookup GI50 for Cc1nc2c(o1)/C(=N\c1ccccc1)c1ccccc1/C2=N/c1ccccc1
OUT: 79.1 µM (inactive)

IN: // lookup GI50 for COC(=O)C1(C(=O)OC)C/C(C)=C(/C)SCCCS1
OUT: > 100 µM (inactive)

IN: // lookup GI50 for COc1cc2c3c(c1OC)-c1ccccc1C(C(O)c1ccccc1)C3N(C)CC2 (stereo unspecified)
OUT: 90.4 µM (inactive)

IN: // lookup GI50 for CCOc1cnc(C(O)(c2ccccc2)c2ccccc2)o1
OUT: > 100 µM (inactive)

IN: // lookup GI50 for COc1ccc(NC(=O)CC(=O)N/N=C/c2ccc(N(CCC#N)S(=O)(=O)c3ccccc3)cc2)cc1
OUT: > 100 µM (inactive)

IN: // lookup GI50 for O=C(O)CNn1c(SCC(=O)O)nnc(/C=C/c2c(O)ccc3ccccc23)c1=O
OUT: 14.3 µM (inactive)

IN: // lookup GI50 for COc1cc(C)c(C(=O)/C=C/c2cc(OC)c(O)c(OC)c2)cc1O
OUT: 32.4 µM (inactive)

IN: // lookup GI50 for O=C(O)c1cc2ccc(Cl)cc2c(O)c1C1=CCCCC1
OUT: 43.4 µM (inactive)

IN: // lookup GI50 for Cn1c(N)c(/C=C/C(=O)Oc2ccccc2)c(=O)n(C)c1=O
OUT: > 100 µM (inactive)

IN: // lookup GI50 for CCCCNC(=O)C1C2CCC(O2)C1C(=O)O (stereo unspecified)
OUT: 13.7 µM (inactive)

====

Field: GI50. Provide a value for each of the compounds that follow.
Tested on: SR
protocolDescription: NCI tumour cell line growth inhibition, 48 h
Activity calls are given as the source filed them. Rule as the data show it: active = GI50 up to about 1.1 µM and inactive = higher.

IN: Notebook entry, SR assay: GI50 of COC(=O)c1c2c(cc3c1CC1(Cc4cc5c(c(C)c4C1)CCC5)C3)CCC2 (stereo not drawn) = ?
OUT: > 100 µM (inactive)

IN: Notebook entry, SR assay: GI50 of CC(C)C(C/C=C1/CC(CO)(COC(=O)C(C)(C)C)OC1=O)C(C)C (stereo not drawn) = ?
OUT: 14.9 µM (inactive)

IN: Notebook entry, SR assay: GI50 of Clc1ccc(-c2nc(-c3ccc(Cl)cc3)[s+]s2)cc1 = ?
OUT: 28.4 µM (inactive)

====

Field: GI50. Provide a value for each of the molecules that follow.
Test system: HOP-92
protocolDescription: NCI tumour cell line growth inhibition, 48 h
Structures can show the parent of a compound that is named as a salt. The source made the active and inactive calls. Rule as the data show it: active = GI50 up to about 1.1 µM and inactive = higher.

IN: // lookup GI50 for Nc1nc(Cl)cc(NCC2(CO)CC(O)C2)n1 (stereo not given)
OUT: > 100 µM (inactive)

IN: // lookup GI50 for Cc1c(/C=N\NC(=S)NCCNC(=S)N/N=C\c2c(C)n(C)n(-c3ccccc3)c2=O)c(=O)n(-c2ccccc2)n1C
OUT: > 100 µM (inactive)

IN: // lookup GI50 for Cc1cccc2c(=O)c([Se]c3coc4c(C)cccc4c3=O)coc12
OUT: 20.8 µM (inactive)

IN: // lookup GI50 for C=C1CCCC2[C@](C)(CC3=C(Cl)C(=O)C=C(OC)C3=O)C(C)CC[C@]12C (stereo not given in full)
OUT: 6.12 µM (inactive)

IN: // lookup GI50 for N=C(N)c1ccc(-c2ccc(-c3ccc(C(=N)N)cc3)o2)cc1 [FURAMIDINE HYDROCHLORIDE]
OUT: 62.4 µM (inactive)

IN: // lookup GI50 for CC1(c2cccc(Cl)c2)CC(c2cccc(Cl)c2)=C(C#N)C(=C(C#N)C#N)N1 (stereo not given)
OUT: 6.19 µM (inactive)

IN: // lookup GI50 for COC(=O)C1=C(O)C(O)=C(C(=O)OC)C1
OUT: > 100 µM (inactive)

IN: // lookup GI50 for Cc1ccc(C2=Nc3cccc4cccc(c34)N2)cc1
OUT: > 100 µM (inactive)

IN: // lookup GI50 for COC(=O)[C@H](CC(C)C)NC1=C(Cl)C(=O)c2c(O)ccc(O)c2C1=O
OUT: > 10 µM (inactive)

IN: // lookup GI50 for O=C1NC2C=CN(Cc3ccccc3)C=C2C(=O)N2CCCC12 (stereo not given)
OUT: > 100 µM (inactive)

====

System: UO-31
protocolDescription: NCI tumour cell line growth inhibition, 48 h
Active and inactive are the calls of the source. Cut-off read from the data, not from the text of the source: active = GI50 up to about 1.1 µM and inactive = higher.
Field: GI50. Provide a value for each of the compounds that follow.

IN: Notebook entry, UO-31 assay: GI50 of CCCCCCCCOC(CO)CO = ?
OUT: > 100 µM (inactive)

IN: Notebook entry, UO-31 assay: GI50 of C/C=C1\CC(C(=O)OCC)CCCCCCC1=O (configuration not stated) = ?
OUT: > 100 µM (inactive)

IN: Notebook entry, UO-31 assay: GI50 of C/C(=N\NC(=S)N1CCN(C)CC1)c1nc2cccnc2[nH]1 = ?
OUT: 32 µM (inactive)

IN: Notebook entry, UO-31 assay: GI50 of CC(C)(C)/N=c1/n(C(C)(C)C)oc(=O)n1-c1ccccc1 = ?
OUT: > 50 µM (inactive)

IN: Notebook entry, UO-31 assay: GI50 of COc1c(O)cc(O)c2c(=O)cc(-c3ccccc3)oc12 [WOGONIN] = ?
OUT: 2.58 µM (inactive)

IN: Notebook entry, UO-31 assay: GI50 of C=CCNC(=S)N/C=C(/C(C)=O)C(=O)Nc1ccccc1C = ?
OUT: > 100 µM (inactive)

IN: Notebook entry, UO-31 assay: GI50 of CCOC1=CP(=O)(OCC)CC(C)=C1Cl (configuration not stated) = ?
OUT: > 100 µM (inactive)

IN: Notebook entry, UO-31 assay: GI50 of Nc1cc(OCC2CCCCC2)nc(N)n1 = ?
OUT: > 100 µM (inactive)

IN: Notebook entry, UO-31 assay: GI50 of Clc1ccc(OCC2NC3CCC2CC3)cn1 (configuration not stated) = ?
OUT: 2.45 µM (inactive)

IN: Notebook entry, UO-31 assay: GI50 of Cc1nc2c(o1)/C(=N\c1ccccc1)c1ccccc1/C2=N/c1ccccc1 = ?
OUT: 73.6 µM (inactive)

IN: Notebook entry, UO-31 assay: GI50 of C#C[C@]1(O)CC[C@H]2[C@@H]3CCC4=C/C(=N\OCCN(CC)CC)CC[C@]4(C)[C@H]3CC[C@@]21C = ?
OUT: 3.72 µM (inactive)

IN: Notebook entry, UO-31 assay: GI50 of Nc1ccc(/C=C/c2ccc3cccnc3c2)cc1 = ?
OUT: > 100 µM (inactive)
